# Assay notes: Pharmacokinetic study after intravenous administration
# Type: in vivo
# Experimental conditions: rat, plasma; intravenous 10 mg/Kg, female Wistar rats
# Experimental: Male and female Wistar rats weighting 250 ± 10 g were used. They were housed in animal center of author’s institute. Each rat was housed in a cage which was kept at 25 ± 1 °C temperature and controlled humidity with 12 h light/dark cycle. Animals were fasted overnight before the experiment and had free access to water. The study protocol was approved by the local ethics committee for animal experiments of Shahid Beheshti University of Medical Sciences (Tehran, Iran). […]
Measure name: clearance (mL/min)
Please respond with the number in mL/min and leave the unit unwritten.

Request: Given the molecule CS(=O)(=O)c1ccc(-c2cc(C(=O)O)c3cccc(C(=O)c4ccccc4)c3n2)cc1 [AZGH 102] , what is its reported clearance?
Response: 0.491

Where do the numbers come from? From paper PMC5603853.
